- assay-comment: qHTS for inhibitors of Vif-A3G interactions: Cherry picks; further: nearly all actives have a fitted effect of over 80% in size; further: potency means the concentration at half of the fitted maximal effect
- measurement-parameters: HeLa A3G-eYFP + Vif, 24 h; eYFP fluorescence increase; series mostly up to 36.9 µM
Among all 2,100 compounds or so, about 650 (31%) were called active. Not shown: some 16% with an inconclusive outcome. The list shows a part of the results.
endpoint-name: Potency

# annotated cases, reported Potency shown
- O=c1[nH]c2ccccc2n2c(=S)[nH]nc12: inactive
- O=c1[nH]c2ccccc2n2c(C(F)(F)F)nnc12: 16.4 µM (active)
- CN(C)c1ccc(/C=C/c2cc[n+](C)cc2)cc1: 15.8 µM (active)
- CC[n+]1cc(C)ccc1/C=C/c1ccc(N(C)C)cc1: 14 µM (active)
- CN(C)c1ccc2ccc3cccc4ccc1c2c34: 14.6 µM (active)
- COc1ccc2ccccc2c1C1NC(=O)c2ccccc2N1 (configuration not stated): inactive
- Cc1cc(C)n(-c2nnc3n2N=C(c2c[nH]c4ccccc24)CS3)n1: inactive
- Cc1ccc(NC(=O)Cn2ncc(Cl)c(Cl)c2=O)cc1S(=O)(=O)N1CCCCC1: inactive
- Cc1ccc(/C=C/c2ccc(N(C)C)cc2)[n+](C)c1: 14 µM (active)
- COc1cc2cc(-c3ccc(OC)c(OC)c3C)nc(N)c2cc1OC: inactive

Q: Using the record for `Cc1c2ccccc2nc2c(F)c(NC(C)C)c(F)c(F)c12` , report its Potency.
Result: 10.3 µM (active)

Q: Using the record for `CCOC(=O)c1c(-c2ccc(OC)cc2)csc1/N=C/C1C(=O)CCCC1=O` , report its Potency.
Result: inactive

---

- assay-comment: qHTS for inhibitors of Vif-A3G interactions: Cherry picks; further: nearly all actives have a fitted effect of over 80% in size
- measurement-parameters: HeLa A3G-eYFP + Vif, 24 h; eYFP fluorescence increase; series mostly up to 36.9 µM
The whole screen tested about 2,100 compounds, of which about 650 (31%) were called active. Not shown: some 16% with an inconclusive outcome. The call rests on the fitted dose curve; in most records, active means well fitted inhibition curve with a large enough effect; inconclusive means small, poorly fitted or top-dose-only effect; inactive means flat fitted curve, though single readings scatter. This is one part of the list.
Outcome (select one): class 1 for active, class 0 for inactive

Some solved entries appear below for comparison.
- N#CCC(=O)N/N=C/c1ccc(N2N=C(c3ccccc3)CC2c2ccccc2)cc1 (stereo unspecified): class 1
- CC(=O)Nc1sc(C)c(C)c1C(=O)OCC(=O)Nc1ccccc1: class 1

Q: // outcome(item) with item = `CN(C)c1ccc(/C=C/c2ccnc3ccc(N)cc23)cc1`
Result: class 1

Q: // outcome(item) with item = COC(=O)C1=C(Nc2ccc(C)cc2)C=C(C)C(C(=O)OC)C1c1cccc(OC)c1 (stereo unspecified)
Result: class 0

Q: // outcome(item) with item = `Cc1sc2ncn(CC(=O)NCc3ccccc3)c(=O)c2c1C`
Result: class 0

Q: // outcome(item) with item = `O=C(C(=Cc1ccccc1)CN1CCCCC1)c1ccccc1`
Result: class 0

---

- assay-comment: qHTS for inhibitors of Vif-A3G interactions: Cherry picks; further: nearly all actives have a fitted effect of over 80% in size
- measurement-parameters: HeLa A3G-eYFP + Vif, 24 h; eYFP fluorescence increase; series mostly up to 36.9 µM
About 650 (31%) of roughly 2,100 compounds were called active. Not shown: some 16% with an inconclusive outcome. The call rests on the fitted dose curve; in most records, active means well fitted inhibition curve with a large enough effect; inconclusive means small, poorly fitted or top-dose-only effect; inactive means flat fitted curve, though single readings scatter. The list shows a part of the results.
Outcome (select one): class 1 (active), class 0 (inactive)

Some solved entries appear below for comparison.
• Cc1[nH]c2ccccc2c1/C=C/c1ccnc2ccccc12 = class 0
• CCc1ccc(C2=NN(S(C)(=O)=O)C(c3cccs3)C2)cc1 (stereo not drawn) = class 1
• COc1ccccc1CNC(=O)c1ccc(Nc2nc3ccccc3n3nnnc23)cc1 = class 1
• CCOc1cc(C#N)c(NC(=O)c2cccnc2)cc1OCC = class 0
• CCSc1nccc(-c2nn(-c3ccc(C)cc3)ccc2=O)n1 = class 0
• COc1cc(Nc2nc3ccccc3n3nnnc23)cc(OC)c1OC = class 1

Q: // outcome(item) with item = `Cn1c(N)c(-c2ccccc2)c2ccc([N+](=O)[O-])cc2c1=O`
Result: class 1

Q: // outcome(item) with item = `Cn1nnnc1SCCNCc1cc(Br)ccc1OCc1ccccc1Cl`
Result: class 0

---

- assay-comment: qHTS for inhibitors of Vif-A3G interactions: Cherry picks; further: nearly all actives have a fitted effect of over 80% in size
- measurement-parameters: HeLa A3G-eYFP + Vif, 24 h; eYFP fluorescence increase; series mostly up to 36.9 µM
The campaign covered roughly 2,100 compounds. About 650 (31%) were called active. About 16% were inconclusive and are not listed. Calls come from the whole dose curve; as a rule, active = well fitted inhibition curve with a large enough effect; inconclusive = small, poorly fitted or top-dose-only effect; inactive = flat fitted curve, though single readings scatter. The list shows a part of the results.
Outcome (select one): Y (active), N (inactive)

Some solved entries appear below for comparison.
• CC(=O)Nc1sc(/C(C#N)=C/c2ccc(Cl)c(Cl)c2)nc1-c1ccc(C)cc1 = Y
• CC(=O)Nc1ccc(-c2ccnc3c2CC(C)(C(=O)NCc2ccco2)O3)cc1 (centres undefined) = N
• CC(C)NC(=S)N/N=C1\CCCCc2ccccc21 = N

Q: // outcome(item) with item = `Cn1cc(/C=C/c2ccc3ccccc3n2)c2ccccc21`
Result: Y

---

- assay-comment: qHTS for inhibitors of Vif-A3G interactions: Cherry picks; further: nearly all actives have a fitted effect of over 80% in size
- measurement-parameters: HeLa A3G-eYFP + Vif, 24 h; eYFP fluorescence increase; series mostly up to 36.9 µM
About 650 (31%) of roughly 2,100 compounds were called active. Another 16% or so got no clear call; they are omitted. The call rests on the fitted dose curve; in most records, active means well fitted inhibition curve with a large enough effect; inconclusive means small, poorly fitted or top-dose-only effect; inactive means flat fitted curve, though single readings scatter. The list shows a part of the results.
Outcome (select one): active, inactive

Some solved entries appear below for comparison.
• COc1cc(/C=C(/C#N)c2nc3ccccc3[nH]2)ccc1OC(=O)c1ccco1 = active
• CCCOc1ccc(C(=O)Nc2cccc(NC(=O)c3ccc(Cl)cc3Cl)c2)cc1 = active
• O=C(c1ccccc1)C1C(=O)c2ccccc2C1=O = inactive
• COc1ccc(/C=N\NC(=O)c2ccccc2F)cc1COc1ccc(F)cc1F = inactive
• CCOC(=O)c1[nH]c(C)c(C(=O)Nc2ccccc2F)c1C = inactive
• CC(=O)Nc1ccc(-c2ccnc3c2CC(C(=O)NCc2cccc(Cl)c2)O3)cc1 (configuration not stated) = inactive

Q: // outcome(item) with item = `CN(/N=C/c1ccc(-c2ccc([N+](=O)[O-])cc2)o1)c1ccccc1`
Result: active

Q: // outcome(item) with item = `CC(C)(C)c1ccc(Oc2ccc(NC(=O)c3ccccc3C(=O)O)cn2)cc1`
Result: inactive

Q: // outcome(item) with item = `CC(=O)Nc1cccc(-c2cc(NC=O)c3ncc(-c4ccc(F)c(Cl)c4)n3c2)c1`
Result: inactive

Q: // outcome(item) with item = `COc1cccc(-c2cnc3c(NC=O)cc(-c4cc(OC)c(OC)c(OC)c4)cn23)c1`
Result: inactive

Q: // outcome(item) with item = `CCOC(=O)C1=C(Cc2ccc(Cl)cc2)C(=O)c2ccccc2C1=O`
Result: active

---

- assay-comment: qHTS for inhibitors of Vif-A3G interactions: Cherry picks; further: nearly all actives have a fitted effect of over 80% in size
- measurement-parameters: HeLa A3G-eYFP + Vif, 24 h; eYFP fluorescence increase; series mostly up to 36.9 µM
Out of some 2,100 compounds screened, about 650 (31%) were called active. Another 16% or so got no clear call; they are omitted. Calls come from the whole dose curve; as a rule, active = well fitted inhibition curve with a large enough effect; inconclusive = small, poorly fitted or top-dose-only effect; inactive = flat fitted curve, though single readings scatter. The list shows a part of the results.
Outcome (select one): class 1 (active), class 0 (inactive)

* O=C(NC(=S)N1CCN(c2ccccn2)CC1)c1ccccc1 | class 0

Q: // outcome(item) with item = `CN1/C(=C\C=C2/SC(=S)NC2=O)C(C)(C)c2ccccc21`
Result: class 1

Q: // outcome(item) with item = `O=c1[nH]cnc2n[nH]nc12`
Result: class 0

Q: // outcome(item) with item = `O=C(N/N=C/c1cccs1)c1n[nH]c2c1CCC2`
Result: class 0

Q: // outcome(item) with item = `COc1ccccc1OCC(=O)N/N=C/C=C/c1ccc([N+](=O)[O-])o1`
Result: class 1

---

- assay-comment: qHTS for inhibitors of Vif-A3G interactions: Cherry picks; further: nearly all actives have a fitted effect of over 80% in size
- measurement-parameters: HeLa A3G-eYFP + Vif (tagged APOBEC3G with the HIV-1 protein that degrades it), 24 h; eYFP fluorescence increase; series mostly up to 36.9 µM
About 650 (31%) of roughly 2,100 compounds were called active. About 16% were inconclusive and are not listed. Calls follow the shape of the dose curve; as a rule, active = well fitted inhibition curve with a large enough effect; inconclusive = small, poorly fitted or top-dose-only effect; inactive = flat fitted curve, though single readings scatter. The list shows a part of the results.
Outcome (select one): true (1) (active), false (0) (inactive)

Some solved entries appear below for comparison.
• Cc1oc(C)c2c(=O)ccc3c(c12)OC(N)=C(C#N)C3c1ccc(F)cc1 (stereo not drawn) = false (0)
• Cc1cc(C)nc(Nc2nc(C(N)Cc3ccccc3)cs2)n1 (stereo not drawn) = false (0)
• CC(C)(C)n1ncc2c(=O)n(CC(=O)NCc3ccc(F)cc3)cnc21 = false (0)
• O=C(Cc1nc2ccccc2[nH]c1=O)c1ccc(Cl)cc1 = true (1)

Q: // outcome(item) with item = `Cn1c2ccccc2c2ccc3c(c21)C(=O)C=CC3=O`
Result: false (0)

Q: // outcome(item) with item = `CC(C)CN(CC(C)C)c1ccc(/C=C/c2ccnc3ccccc23)cc1`
Result: true (1)

Q: // outcome(item) with item = `Cc1cc(-c2ccccc2)c2c3c(c(-c4ccccc4)n2n1)c(=O)n(C)c(=O)n3C`
Result: true (1)

Q: // outcome(item) with item = `COc1ccc(/C=C/c2ccnc3ccccc23)c(OC)c1`
Result: false (0)

Q: // outcome(item) with item = Cc1cc(NC(=O)NC(=O)c2ccccc2NC(=O)C(C)N)ccc1Oc1ncc(Br)cn1 (stereo not drawn)
Result: false (0)

Q: // outcome(item) with item = `CCSC1=NSC2=NC(=O)/C(=C\c3coc4ccccc4c3=O)C(=N)N12`
Result: true (1)

Q: // outcome(item) with item = `Cc1ccccc1NC(=O)c1ccc2c(c1)c(C)c(C)n2Cc1ccccc1`
Result: false (0)

Hello, the source for this data is PubChem BioAssay AID651812, in case you need it.
